// provenance: patent US9045470B2

Molecular target: human TLR7 (Homo sapiens)
Construct: expressed in transfected cells; host or cells: HEK 293 (human embryonic kidney 293), stably transfected; co-transfected pNifty-Luciferase reporter
Sequence (Q9NYK1 27-1049): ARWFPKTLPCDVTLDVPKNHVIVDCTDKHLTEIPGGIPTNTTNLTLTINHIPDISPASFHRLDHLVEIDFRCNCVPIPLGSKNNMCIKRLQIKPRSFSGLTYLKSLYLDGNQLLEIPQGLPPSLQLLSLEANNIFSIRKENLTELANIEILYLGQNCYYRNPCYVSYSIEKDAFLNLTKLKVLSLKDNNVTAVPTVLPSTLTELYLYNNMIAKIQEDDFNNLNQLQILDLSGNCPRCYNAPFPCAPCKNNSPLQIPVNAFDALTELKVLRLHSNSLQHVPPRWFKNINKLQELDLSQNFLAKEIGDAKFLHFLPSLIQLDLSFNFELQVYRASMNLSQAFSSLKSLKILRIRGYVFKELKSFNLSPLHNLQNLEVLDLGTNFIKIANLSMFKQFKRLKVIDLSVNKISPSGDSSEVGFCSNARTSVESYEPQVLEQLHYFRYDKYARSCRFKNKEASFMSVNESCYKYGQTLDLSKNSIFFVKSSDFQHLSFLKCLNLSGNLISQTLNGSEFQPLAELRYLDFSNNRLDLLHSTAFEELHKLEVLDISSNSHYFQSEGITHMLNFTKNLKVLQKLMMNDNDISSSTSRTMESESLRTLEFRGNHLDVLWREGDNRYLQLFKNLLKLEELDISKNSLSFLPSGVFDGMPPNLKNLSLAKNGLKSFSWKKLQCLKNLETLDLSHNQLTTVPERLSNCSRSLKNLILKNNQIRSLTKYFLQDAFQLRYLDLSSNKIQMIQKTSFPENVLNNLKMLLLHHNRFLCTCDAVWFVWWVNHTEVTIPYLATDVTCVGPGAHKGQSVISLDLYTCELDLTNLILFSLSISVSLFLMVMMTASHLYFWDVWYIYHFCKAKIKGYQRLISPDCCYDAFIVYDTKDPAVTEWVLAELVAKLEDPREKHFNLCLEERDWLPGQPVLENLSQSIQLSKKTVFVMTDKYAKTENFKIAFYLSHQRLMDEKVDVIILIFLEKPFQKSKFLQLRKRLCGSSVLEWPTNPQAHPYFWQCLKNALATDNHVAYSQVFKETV
Experiment: Reporter gene assay: HEK293 cells stably transfected with human TLR7 and NF-kB-driven luciferase reporter
Type: cell-based
// classify(record): look up EC50 in ranges 0: < 300 nM; 1: ≥ 300 nM and < 1000 nM; 2: ≥ 1000 nM

• Cc1ccc2c(c1)nc(N)c1ncc(CCc3ccc(OCCCCCP(=O)(O)O)cc3C)cc12 [Compound 27] = 1
• Cc1ccc2c(c1)nc(N)c1ncc(CCc3ccc(OCP(=O)(O)O)cc3C)cc12 [Compound 3] = 2
• Cc1ccc2c(c1)nc(N)c1ncc(CCc3ccc(OCCCCP(=O)(O)O)cc3C)cc12 [Compound 28] = 1

Now examine the next entry.
Hi, small favor: classify COc1ccc(CCc2cnc3c(N)nc4cc(/C=C/P(=O)(O)O)ccc4c3c2)c(C)c1 [Compound 10] by its EC50 when you get a moment.
0

====

Molecular target: human TLR7 (Homo sapiens, UniProt Q9NYK1)
Construct: expressed in transfected cells; host or cells: HEK 293 (human embryonic kidney 293), stably transfected; co-transfected pNifty-Luciferase reporter
Test: Reporter gene assay: HEK293 cells stably transfected with human TLR7 and NF-kB-driven luciferase reporter
Type: cell-based
Please provide measured EC50 for the entries that follow.
Give bare numbers, in nM.

Example entries and their recorded answers appear below.
* Cc1ccc2c(c1)nc(N)c1ncc(CCc3ccc(OCc4ccc(CP(=O)(O)O)cc4)cc3C)cc12 [Compound 25] | 975
* Cc1ccc2c(c1)nc(N)c1ncc(CCc3ccc(OCCCCCCP(=O)(O)O)cc3C)cc12 [Compound 23] | 791
* Cc1ccc2c(c1)nc(N)c1ncc(CCc3ccc(OCCOCCC(F)(F)P(=O)(O)O)cc3C)cc12 [Compound 7] | 1010
* Cc1ccc2c(c1)nc(N)c1ncc(CCc3ccc(OCc4cccc(P(=O)(O)O)c4)cc3C)cc12 [Compound 13] | 1050

Now for the compound whose EC50 we want.
So what's the measured EC50 for this one? COc1ccc(CCc2cnc3c(N)nc4cc(C(=O)P(=O)(O)O)ccc4c3c2)c(C)c1 [Compound 14]
885
